Attribution: patent US5648330A

Tested on: platelets stimulated with ADP
Test: ADP-stimulated platelet aggregation (Born aggregometry, PRP)
Assay type: cell-based, human
Details: ADP 10 μm, platelet-rich plasma, 37° C.
pIC50: −log10 of the molar value. Where no end group is shown, it is not given here. [ ]: non-standard residue; d: D form. Pen = CC(C)(S)[C@H](N)C(=O)O
# thresholds on pIC50 define classes: bottom range = under 4, center range = from 4 up to 5, top range = 5 and over

Hi there! Could you help me figure out the category for R(orn)GHRGDLRDR please?
bottom range

Category lookup for the substance GPenGRGDRPCA
center range

Assign a bin to RPenGRGDTPCR
top range

Each substance maps to one class by pIC50. Which class for R[Pen]GRGDLRCA (cysteine pairing not given here) ?
center range

State the band of GPenLRGDSPCA
bottom range

Which class is correct for the following substance? GPenFRGDSFCA
bottom range

Assign a category based on measured pIC50 for RPenGHRGDWRCR and give only the class name.
top range

# classify by pIC50 band: LRGDSPDG
bottom range

Looking at G[Pen]YRGDSPCA (cysteine pairing not given here) , which class would you pick?
center range

Into which bin does this substance go? GPenLRGDSRCA
center range

Looking at RPenGRGDTPCA , which class would you pick?
top range

Band assignment needed for GPenGRGDTPCA please.
center range

###

Tested on: canine platelet aggregation
Assay: In vitro canine platelet aggregation stimulated by ADP, arachidonic acid or collagen
Assay type: cell-based, dog
Settings: 10 μm ADP, […] arachidonic acid or 9.6 micrograms/ml collagen; PRP; read-out: IC50 against canine platelet aggregation
Kindly supply the reported IC50 values for the records listed here.

Output IC50 of RPenGRGDWPCR
1.5 to 5 µM

Indicate its recorded IC50; the substance in question is GPenGHRGDLRCA
15 to 30 µM

Assign IC50 to the following record: RPenGHRGDWRCR
1.5 to 5 µM

###

System: platelets stimulated with ADP
Test: ADP-stimulated platelet aggregation (Born aggregometry, PRP)
Format: cell-based, human
Conditions: ADP 10 μm, platelet-rich plasma, 37° C.
Where no end group is shown, it is not given here. [ ]: non-standard residue; d: D form. Pen = CC(C)(S)[C@H](N)C(=O)O
Exercise: state measured pIC50 for each of the substances provided.
The value called pIC50 is obtained by taking minus log10 of the concentration in mol/L.

Supply recorded pIC50 for PmpGRGDTPCA here.
4.07

Fill in pIC50 for record GPenLRGDTPCA
4.07

Input (t-but-am-Pmp)GHRGDLRPenA , output reported pIC50.
4.05

For R[Pen]GHRGDTRCR (cysteine pairing not given here) , write its pIC50.
5.06

Given (t-butylAmino-Pmp) GHRGDLRCA , respond with its pIC50.
3.89

Write down pIC50 measured for item RPenGRGDTPCK
5.12

Given VRGDSPDG , respond with its pIC50.
4.04

Answer with the recorded pIC50 of G[Pen]GRGDSFCA (cysteine pairing not given here) only.
3.94

State its pIC50 for this substance: FRGDSPDG
3.96

Identify pIC50 associated with the substance LPenGHRGDLRCA
4.98

Provide only the value of recorded pIC50 for R2 PenGRGDTPCA
5.09

Tell me measured pIC50 for GPenGHRGDTRCA please.
4.95

Give the reported pIC50 for this substance. R[Pen]GRGDSRCA (cysteine pairing not given here)
4.92
